Biological target: Dual specificity protein kinase CLK4 (Homo sapiens) (UniProt Q9HAZ1)
Sequence (Q9HAZ1 whole entry, looked up): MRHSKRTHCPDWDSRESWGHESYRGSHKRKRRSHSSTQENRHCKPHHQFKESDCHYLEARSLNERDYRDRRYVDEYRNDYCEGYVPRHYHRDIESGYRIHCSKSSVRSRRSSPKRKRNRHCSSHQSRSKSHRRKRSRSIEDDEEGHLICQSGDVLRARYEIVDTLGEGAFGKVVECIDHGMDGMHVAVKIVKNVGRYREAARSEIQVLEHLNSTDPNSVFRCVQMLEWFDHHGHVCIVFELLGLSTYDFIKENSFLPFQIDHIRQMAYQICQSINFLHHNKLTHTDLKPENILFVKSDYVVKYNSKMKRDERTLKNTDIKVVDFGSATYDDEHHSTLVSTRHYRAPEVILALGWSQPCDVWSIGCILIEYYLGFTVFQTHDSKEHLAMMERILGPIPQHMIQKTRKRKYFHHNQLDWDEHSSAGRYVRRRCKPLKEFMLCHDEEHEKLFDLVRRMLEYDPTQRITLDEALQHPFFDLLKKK
Assay: qHTS Assay for Inhibitors of CDC-like Kinase 4 (ADP-FP Assay) (AID 1795); further: nearly all actives have a fitted effect of over 60% in size
Settings: Transcreener ADP fluorescence polarization; series mostly up to 50 µM
Description: NIH Molecular Libraries Probe Production Centers Network [MLPCN] NIH Chemical Genomics Center [NCGC] MLPCN Grant: 1R03MH084827-01 Assay Submitter (PI): Tom Misteli NCGC Assay Overview: Clk4 (Invitrogen cat # PV3839) was assayed using ATP and the RS repeat peptide (AnaSpec cat # 61722) as substrates using Transcreener (trade mark), a competitive fluorescence polarization (FP) assay. […] The amount of ADP produced can then be calculated using a calibration curve. […]
Records with an inconclusive call do not appear. Activity calls are given as the source filed them. The call rests on the fitted dose curve; in most records, active means well fitted inhibition curve with a large enough effect; inconclusive means small, poorly fitted or top-dose-only effect; inactive means flat fitted curve, though single readings scatter.
Return exactly one item of active, inactive

Solved cases below.
- MOL_SMILES: "COCCn1c(=O)c(-c2ccccc2)nc2cnc(Oc3ccc(OC)cc3)nc21"
  EXPERIMENTAL_SYSTEM: "Dual specificity protein kinase CLK4 (Homo sapiens) (UniProt Q9HAZ1)"
  CAT: "inactive"
- MOL_SMILES: "CCNc1ncc2nc(-c3cn(C)c4ccccc34)c(=O)n(C)c2n1"
  EXPERIMENTAL_SYSTEM: "Dual specificity protein kinase CLK4 (Homo sapiens) (UniProt Q9HAZ1)"
  CAT: "inactive"
- MOL_SMILES: "FC(F)(F)c1ccccc1-c1nc(NCc2cccs2)c2ccccc2n1"
  EXPERIMENTAL_SYSTEM: "Dual specificity protein kinase CLK4 (Homo sapiens) (UniProt Q9HAZ1)"
  CAT: "inactive"
- MOL_SMILES: "COc1cccc(-c2nc(N3CCN(C)CC3)c3ccccc3n2)c1"
  EXPERIMENTAL_SYSTEM: "Dual specificity protein kinase CLK4 (Homo sapiens) (UniProt Q9HAZ1)"
  CAT: "inactive"

Query: What did the test return for Cc1cnc(CNc2ncnc3ccc(-c4ccoc4)cc23)cn1 ?
Result: active

Query: Here is the next compound: COc1ccc(-n2c(=O)c(-c3cccc(C#N)c3)nc3cnc(N4CCNCC4)nc32)cc1
Result: inactive

Query: Here is the next compound: O=c1cnc2cnc(Nc3ccccc3)nc2n1Cc1ccc(F)cc1
Result: inactive

Query: Here is the next compound: CS(=O)(=O)Nc1cccc(-c2ccc3ncnc(N4CCNCC4)c3c2)c1
Result: active

Query: Here is the next compound: CN(C)c1ncc2nc(-c3cc(F)cc(F)c3)c(=O)n(C3CC3)c2n1
Result: inactive

Query: Here is the next compound: COCCn1c(=O)c(-c2cn(C)c3ccccc23)nc2cnc(N3CCOCC3)nc21
Result: inactive

Query: Here is the next compound: Cc1ccccc1-c1cc(Nc2ccccc2)ncn1
Result: inactive

The values you see were collected from PubChem BioAssay (NCATS).
